Hey, just so you know, these numbers are from ChEMBL document CHEMBL2346657.

Test system: Aspergillus flavus
Test: Antimicrobial activity against Aspergillus flavus MTCC 1973 at 750 ug/ml after 72 hrs by cup plate method
Assay type: functional
Conditions: MTCC 1973, 72 h, read-out: IZ
ENDPOINT: zone of inhibition at 750 µg/mL (mm)
Write down the numeric answer in mm and omit the unit.

Examples with answers:
q: Return reported zone of inhibition at 750 µg/mL; argument: Cc1ccc2[nH]c(-c3ccccc3)c(C3C=C(c4ccc(Cl)cc4)Oc4[nH]nc(N)c43)c2c1 (stereo not drawn)
a: 5

q: Quick one: zone of inhibition at 750 µg/mL for N#Cc1c(N)c2c(N)c3c(nc2oc1=O)OC(c1ccccc1)=CC3c1c(-c2ccccc2)[nH]c2ccc(Cl)cc12 (stereo not drawn) ?
a: 3

New cases:
q: Query (compound): Cc1ccc2[nH]c(-c3ccccc3)c(C3C=C(c4ccc(Cl)cc4)OC(N)=C3C#N)c2c1 (stereo not drawn) ; field requested: zone of inhibition at 750 µg/mL
a: 10
